Biological target: 5-HT2A receptor (Homo sapiens, UniProt P28223)
Sequence (P28223 whole entry): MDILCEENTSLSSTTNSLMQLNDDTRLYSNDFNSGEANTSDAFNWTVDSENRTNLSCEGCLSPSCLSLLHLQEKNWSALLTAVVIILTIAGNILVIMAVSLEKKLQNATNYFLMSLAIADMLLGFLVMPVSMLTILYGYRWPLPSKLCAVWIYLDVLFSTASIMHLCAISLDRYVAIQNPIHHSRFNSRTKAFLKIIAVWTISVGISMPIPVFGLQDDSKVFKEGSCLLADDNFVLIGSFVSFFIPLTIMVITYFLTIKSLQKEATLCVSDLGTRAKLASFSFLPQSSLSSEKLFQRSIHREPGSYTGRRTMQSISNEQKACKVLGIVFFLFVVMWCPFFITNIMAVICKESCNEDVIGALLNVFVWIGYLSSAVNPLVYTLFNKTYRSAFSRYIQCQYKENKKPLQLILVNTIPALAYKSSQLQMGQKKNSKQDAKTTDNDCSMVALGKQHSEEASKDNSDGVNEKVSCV
Test: Binding to 5-HT2A receptor, [125I]-DOI, Method (c)
Parameters: expressed in transfected cells; host or cells: CHO cell line
Conditions: Method (c); [125I]-DOI; CHO cell line; Ki calculated from IC50; read-out: Ki (2A)
measured attribute: Ki

See these solved cases before continuing.
molecule	Ki
Cc1noc(C)c1COc1cc(F)c(COC(=O)N2[C@H](C)CNC[C@@H]2C)c(F)c1	200 nM
Cl.O=C(OCc1ccc(OC(F)F)cc1)N1CCNCC1 [Example 22, hydrochloride]	44 nM

With those in mind, consider the next molecule.
Given the molecule Cl.O=C(SCc1ccc(OCc2ccccc2)cc1)N1CCNCC1 [Example 32, hydrochloride] , what is its reported Ki?
6 nM

====

Target: 5-HT2A receptor (Homo sapiens)
Experiment: Functional activity, FLIPR calcium assay, CHO cells expressing human 5-HT2A
Type: cell-based
Set-up: expressed in transfected cells; host or cells: CHO cells
Conditions: FLIPR, CHO cells, Fluo-3-AM; read-out: h5-HT2A EC50
measured attribute: pEC50
# log scale: pEC50 equals minus log10 of the concentration in mol/L

compound	quantitative readout
Cl.O=C(SCc1ccc(OCc2ccccc2)cc1)N1CCNCC1 [Example 32, hydrochloride]	6.25
Cc1noc(C)c1COc1cc(F)c(COC(=O)N2[C@H](C)CNC[C@@H]2C)c(F)c1 [Example 121]	6.26

Could you share which pEC50 value was measured for Cl.O=C(OCc1ccc(OC(F)F)cc1)N1CCNCC1 [Example 22, hydrochloride] ?
6.66
